FYI, the data here is from patent US20260139048A1.

Target of assay: T1, TIGIT on TIGIT-over expressing NFAT-Luc/Jurkat effector cells (GenScript reporter cell line) (UniProt Q495A1 22-244, limits assumed)
T1 sequence (looked up): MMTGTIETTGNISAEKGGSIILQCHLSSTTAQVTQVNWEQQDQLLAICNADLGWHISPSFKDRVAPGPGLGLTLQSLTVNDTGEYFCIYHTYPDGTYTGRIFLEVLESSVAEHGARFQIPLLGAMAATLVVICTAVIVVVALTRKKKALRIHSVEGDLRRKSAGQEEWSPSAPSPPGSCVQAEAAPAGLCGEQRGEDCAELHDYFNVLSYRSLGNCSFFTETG
Measurement notes: cell-based or functional assay
Quantity: EC50 (nM)
Just the number please, in nM, no unit attached.

If you can, please state the reported EC50 value of huTIGIT-19-3 (antibody, human IgG1, kappa, V domains shown, Humanized IgG; also called 19VH4.M10 + 19VL1.M4) VH: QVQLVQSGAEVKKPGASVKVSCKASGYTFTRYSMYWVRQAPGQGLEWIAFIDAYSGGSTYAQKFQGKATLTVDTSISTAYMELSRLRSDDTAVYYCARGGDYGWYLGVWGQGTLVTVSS VL: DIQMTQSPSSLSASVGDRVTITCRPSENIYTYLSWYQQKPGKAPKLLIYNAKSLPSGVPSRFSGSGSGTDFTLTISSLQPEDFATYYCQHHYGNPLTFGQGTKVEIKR . 2.65
